This collection of values is drawn from ChEMBL document CHEMBL3108745.

Measured pIC50 (Histone deacetylase 8 (Homo sapiens, UniProt Q9BY41))
Units for pIC50: none; it is -log10 of a concentration expressed in mol/L.

# count of solved cases: 5
{"columns": ["SMILES_INPUT", "pIC50"],
 "data": [
  ["Oc1cccn(CCCCn2cc(-c3ccccc3)nn2)c1=S", 5.48],
  ["Oc1cccn(CCCCCCn2cc(-c3ccccc3)nn2)c1=S", 5.17],
  ["Oc1cccn(CCCCCn2cc(-c3ccccc3)nn2)c1=S", 6.04],
  ["Cc1ccccc1-c1cn(CCCCCn2cccc(O)c2=S)nn1", 5.62],
  ["Cc1ccc(-c2cn(CCCCCn3cccc(O)c3=S)nn2)cc1", 5.60]
]}

Here's the next entry for you.
# input molecule: Cc1cccc(-c2cn(CCCCCn3cccc(O)c3=S)nn2)c1 ; wanted: its pIC50
5.78

* * *

The compounds below have reported IC50 for Histone deacetylase 2 (Homo sapiens).
The reply should contain only the number, in µM.

{"columns": ["SMILES_INPUT", "IC50, µM"],
 "data": [
  ["N#Cc1cccc(-c2cn(CCCCCn3cccc(O)c3=S)nn2)c1", 3.68]
]}

Okay, next one:
If you can, please state the reported IC50 value of Oc1cccn(CCCCCn2cc(-c3ccccc3)nn2)c1=S .
5.84

* * *

compounds and their reported IC50
assay: Cytotoxicity against human Jurkat gamma1 cells assessed as growth inhibition after 72 hrs by MTS assay; type: functional, cell-based
Write the answer as a number in µM, unit excluded.

Which IC50 value is on record for Oc1cccn(CCCCCn2cc(-c3ccccc3)nn2)c1=S ?
1.86

And the next one, N#Cc1cccc(-c2cn(CCCCCn3cccc(O)c3=S)nn2)c1 ?
0.9

* * *

test: Aqueous solubility of the compound […] at room temperature by UV-vis spectrophotometric analysis; assay type: physicochemical

{"columns": ["SMILES_INPUT", "solubility"],
 "data": [
  ["Oc1cccn(CCCCCCCn2cc(-c3ccccc3)nn2)c1=S", "soluble"],
  ["Cc1ccccc1-c1cn(CCCCCn2cccc(O)c2=S)nn1", "soluble"],
  ["N#Cc1cccc(-c2cn(CCCCCn3cccc(O)c3=S)nn2)c1", "soluble"],
  ["Oc1cccn(CCCCCn2cc(-c3ccccc3)nn2)c1=S", "soluble"]
]}
